Biological target: B1R of the rat (Rattus norvegicus)
Construct: expressed in transfected cells; host or cells: CHO K1 cells (Chinese hamster ovary), stably transfected
Assay: FLIPR Ca2+ functional assay, B1R antagonism, rat B1R in CHO K1 cells
Type: cell-based
Conditions: test substance 10 μM; rB1R CHO K1 cells; agonist Des-Arg9 bradykinin at EC80; % of maximum achievable inhibition
measurement label: inhibition at 10 µM (%)
Numbers only; they are read as %.

Below, each entry is followed by its recorded inhibition at 10 µM result.
{"compound": "Cc1ccc2[nH]c(C3CCN(C(=O)CC4c5cccn5CCN4S(=O)(=O)c4c(C)cccc4Cl)CC3)nc2c1 (stereo not shown)", "measured number": 39.7}
{"compound": "O=C(CC1c2cccn2CCN1S(=O)(=O)c1ccccc1)N1CCC(N2CCOCC2)CC1 (stereo not shown)", "measured number": 26.7}
{"compound": "Cc1ccc(C)n1CCN1CCN(C(=O)CC2c3cccn3CCN2S(=O)(=O)c2ccccc2)CC1 (stereo not shown)", "measured number": 17.2}

Query: inhibition at 10 µM lookup needed for O=C(CC1c2cccn2CCN1S(=O)(=O)c1ccccc1)NCC1CCCN(Cc2ccccc2)C1 (stereo not shown) , thanks.
Result: -14

Query: Let us now turn to COc1cc(C)c(S(=O)(=O)N2CCn3cccc3C2CC(=O)NCC2CCCN(Cc3ccccc3)C2)c(C)c1 (stereo not shown)
Result: 84

Query: Same question for CCC(C)NCc1ccc2c(c1)CCCC2NC(=O)CC1c2cccn2CCN1S(=O)(=O)c1ccc(C)c(Cl)c1 (stereo not shown) please.
Result: 102

Query: Do the same for COc1cc(C)c(S(=O)(=O)N2CCn3cccc3C2CC(=O)N2CCN(Cc3ccc4c(c3)OCO4)CC2)c(C)c1 (stereo not shown) please
Result: 6.85

---

Molecular target: B1R of the rat (Rattus norvegicus, UniProt P97583)
Construct: expressed in transfected cells; host or cells: CHO K1 cells (Chinese hamster ovary), stably transfected
Sequence (P97583 whole entry): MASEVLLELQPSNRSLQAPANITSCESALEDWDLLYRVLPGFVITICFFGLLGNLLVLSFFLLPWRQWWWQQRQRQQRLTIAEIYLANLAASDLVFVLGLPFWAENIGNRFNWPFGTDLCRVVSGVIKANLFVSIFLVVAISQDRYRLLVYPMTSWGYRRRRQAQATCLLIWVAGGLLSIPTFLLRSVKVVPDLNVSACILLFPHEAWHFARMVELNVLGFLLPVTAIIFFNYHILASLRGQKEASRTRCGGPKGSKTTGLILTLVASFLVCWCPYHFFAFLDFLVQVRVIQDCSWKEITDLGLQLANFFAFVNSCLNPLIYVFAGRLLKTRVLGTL
Assay: FLIPR Ca2+ functional assay, B1R antagonism, rat B1R in CHO K1 cells
Type: cell-based
Conditions: test substance 10 μM; rB1R CHO K1 cells; agonist Des-Arg9 bradykinin at EC80; % of maximum achievable inhibition
measurement label: inhibition at 10 µM (%)
Give just the number in %; leave the unit off.

{"compound": "Cc1cccc(Cl)c1S(=O)(=O)N1CCn2cccc2C1CC(=O)N1CCCN(c2ncccc2C#N)CC1 (stereo not shown) [Example 164]", "inhibition at 10 µM / %": 44.1}

Query: Quick check: inhibition at 10 µM of O=C(CC1c2cccn2CCN1S(=O)(=O)c1ccccc1)NCCN1CCCC1 (stereo not shown) [Example 168] ?
Result: 40.1

Query: Entry Cc1ccc(S(=O)(=O)N2CCn3cccc3C2CC(=O)NC2CCCc3cc(CN4CCCC4)ccc32)cc1Cl (stereo not shown) [Example 91] please
Result: 99

Query: Now consider CCC(C)NCc1ccc2c(c1)CCC(NC(=O)CC1c3cccn3CCN1S(=O)(=O)c1ccc3cc(OC)ccc3c1)C2 (stereo not shown) [Example 121] and answer again.
Result: 99.5

---

Molecular target: B1R of the rat (Rattus norvegicus)
Construct: expressed in transfected cells; host or cells: CHO K1 cells (Chinese hamster ovary), stably transfected
Test: FLIPR Ca2+ functional assay, B1R antagonism, rat B1R in CHO K1 cells
Format: cell-based
Conditions: test substance 10 μM; rB1R CHO K1 cells; agonist Des-Arg9 bradykinin at EC80; % of maximum achievable inhibition
Is inhibition at 10 µM at least 90%? Then 1. If not, -1.

Check out these entries, answers already filled in.
{"molecule": "CC1CCCC(C)N1CCCNC(=O)CC1c2cccn2CCN1S(=O)(=O)c1ccccc1 (stereo not drawn)", "label value": -1}
{"molecule": "COc1cc(C)c(S(=O)(=O)N2CCn3cccc3C2COCC(=O)NC2CCN(c3ccc(C(F)(F)F)cn3)C2)c(C)c1 (stereo not drawn)", "label value": -1}
{"molecule": "COc1ccc2cc(S(=O)(=O)N3CCn4cccc4C3CC(=O)N(C)C3CCc4cc(CN5CCCCC5)ccc4C3)ccc2c1 (stereo not drawn)", "label value": 1}
{"molecule": "COc1cc(C)c(S(=O)(=O)N2CCn3cccc3C2CC(=O)N2CCN(c3ccc(Cl)c(Cl)c3)CC2)c(C)c1 (stereo not drawn)", "label value": -1}
{"molecule": "Cc1cccc(Cl)c1S(=O)(=O)N1CCn2cccc2C1CC(=O)N1CCC[C@H]1CN1CCCC1 (stereo partly drawn)", "label value": -1}
{"molecule": "COc1cc(C)c(S(=O)(=O)N2CCn3cccc3C2CC(=O)N2CCN(CCn3c(C)ccc3C)CC2)c(C)c1 (stereo not drawn)", "label value": -1}
{"molecule": "CCC(C)NCc1ccc2c(c1)CCCC2NC(=O)CC1c2cccn2CCN1S(=O)(=O)c1cccc(C(F)(F)F)c1 (stereo not drawn)", "label value": 1}
{"molecule": "CN1CCN(C(=O)CC2c3cccn3CCN2S(=O)(=O)c2ccccc2)C(c2ccccc2)C1 (stereo not drawn)", "label value": -1}

Query: Textbook exercise: given the entry O=C(CC1c2cccn2CCN1S(=O)(=O)c1cccc(C(F)(F)F)c1)NC1CCCc2cc(CNCc3ccccc3)ccc21 (stereo not drawn) , state whether its inhibition at 10 µM is greater than or equal to 90%.
Result: 1

Query: Same question for COc1ccc2cc(S(=O)(=O)N3CCn4cccc4C3CC(=O)NC3CCCc4cc(CNC(C)(C)C)ccc43)ccc2c1 (stereo not drawn) please.
Result: 1

Query: Same thing, different molecule: Cc1ccc(S(=O)(=O)N2CCn3cccc3C2CC(=O)NC2CCc3cc(CN4C5CCCC4CC5)ccc3C2)cc1Cl (stereo not drawn)
Result: 1

Query: And the next one, COc1ccc2cc(S(=O)(=O)N3CCn4cccc4C3CC(=O)NCCc3ccc(C4=NCCN4)cc3)ccc2c1 (stereo not drawn) ?
Result: 1

Query: Another: O=C(CC1c2cccn2CCN1S(=O)(=O)c1cccc(C(F)(F)F)c1)NC1CCc2cc(CNCc3ccccc3)ccc2C1 (stereo not drawn)
Result: 1

Query: Repeat with Cc1cccc(Cl)c1S(=O)(=O)N1CCn2cccc2C1CC(=O)NC(CN1CCN(C)CC1)c1ccccc1 (stereo not drawn)
Result: 1

Query: Another molecule: O=C(CC1c2cccn2CCN1S(=O)(=O)c1cccc(C(F)(F)F)c1)NC1CCc2cc(CN3CCCCC3)ccc2C1 (stereo not drawn)
Result: 1

// provenance: patent US8158628B2
